Value source: the supplement of paper PMC8975748

System: Saccharomyces cerevisiae BY4741 SeMeCo community
ASSAY METHOD TEXT: z-score of subpopulation abundance vs DMSO median, subpopulation auxotrophic for HLU; higher = larger share of this subpopulation than in DMSO controls
CONDITION PARAMETERS: 10 µM; 24 h; SM minimal medium; subpopulation (auxotrophy): HLU
VALUE KIND: z-score of subpopulation abundance
Keep the answer to the number alone.

{"COMPOUND": "NCC[C@H](O)C(=O)N[C@@H]1C[C@H](N)[C@@H](O[C@H]2O[C@H](CN)[C@@H](O)[C@H](O)[C@H]2O)[C@H](O)[C@H]1O[C@H]1O[C@H](CO)[C@@H](O)[C@H](N)[C@H]1O [Amikacin disulfate]", "z-score of subpopulation abundance": 0.12}
{"COMPOUND": "N[C@@H](C(=O)N[C@@H]1C(=O)N2C(C(=O)O)=C(Cl)CS[C@H]12)c1ccccc1", "z-score of subpopulation abundance": -0.22}
{"COMPOUND": "C[N+]1(C)[C@@H]2C[C@@H](OC(=O)C(O)(c3cccs3)c3cccs3)C[C@H]1[C@@H]1O[C@@H]12 [Tiotropium Bromide hydrate]", "z-score of subpopulation abundance": -0.81}
{"COMPOUND": "O=c1[nH]c2ccccc2n1CCN1CCN(c2cccc(C(F)(F)F)c2)CC1", "z-score of subpopulation abundance": -0.49}

Reported z-score of subpopulation abundance for Nc1ccc(S(=O)(=O)Nc2ncccn2)cc1 : what is it?
0.31

Reported z-score of subpopulation abundance, compound Cc1ncc([N+](=O)[O-])n1CC(C)O (configuration not stated) : ____
0.35

Returns the measured z-score of subpopulation abundance for the input compound. Input: Cc1onc(-c2ccccc2Cl)c1C(=O)N[C@@H]1C(=O)N2[C@@H]1SC(C)(C)[C@@H]2C(=O)O [Cloxacillin Sodium]
0.44

###

Tested on: Saccharomyces cerevisiae BY4741 SeMeCo community
ASSAY METHOD TEXT: z-score of subpopulation abundance vs DMSO median, subpopulation auxotrophic for UM; higher = larger share of this subpopulation than in DMSO controls
CONDITION PARAMETERS: 10 µM; 24 h; SM minimal medium; subpopulation (auxotrophy): UM
Counter-ions that a name gives are not always drawn.
# label = bin(measured z-score of subpopulation abundance), where bins are lower bin = under -0.4, middle bin = from -0.4 up to 0.5, upper bin = 0.5 and over

{"COMPOUND": "CN[C@H](CC(C)C)C(=O)N[C@H]1C(=O)N[C@@H](CC(N)=O)C(=O)N[C@H]2C(=O)N[C@H]3C(=O)N[C@H](C(=O)N[C@H](C(=O)O)c4cc(O)cc(O)c4-c4cc3ccc4O)[C@H](O)c3ccc(c(Cl)c3)Oc3cc2cc(c3O[C@@H]2O[C@H](CO)[C@@H](O)[C@H](O)[C@H]2O[C@H]2C[C@](C)(N)[C@H](O)[C@H](C)O2)Oc2ccc(cc2Cl)[C@H]1O [Vancomycin HCl]", "SYSTEM UNDER TEST": "Saccharomyces cerevisiae BY4741 SeMeCo community", "QUALITATIVE LABEL": "upper bin"}
{"COMPOUND": "O=C(NCCO[N+](=O)[O-])c1cccnc1", "SYSTEM UNDER TEST": "Saccharomyces cerevisiae BY4741 SeMeCo community", "QUALITATIVE LABEL": "lower bin"}
{"COMPOUND": "C1N2CN3CN1CN(C2)C3", "SYSTEM UNDER TEST": "Saccharomyces cerevisiae BY4741 SeMeCo community", "QUALITATIVE LABEL": "upper bin"}
{"COMPOUND": "COc1ccnc(C[S+]([O-])c2nc3cc(OC(F)F)ccc3[nH]2)c1OC (stereo not drawn) [Pantoprazole sodium]", "SYSTEM UNDER TEST": "Saccharomyces cerevisiae BY4741 SeMeCo community", "QUALITATIVE LABEL": "upper bin"}

Bin? CC[C@H](C)C[C@H](C)CCCCCCCCC(=O)N[C@H]1C[C@@H](O)[C@@H](NCCN)NC(=O)[C@@H]2[C@@H](O)CCN2C(=O)[C@H]([C@H](O)CCN)NC(=O)[C@H]([C@H](O)[C@@H](O)c2ccc(O)cc2)NC(=O)[C@@H]2C[C@@H](O)CN2C(=O)[C@H]([C@@H](C)O)NC1=O [Caspofungin Acetate]
lower bin

GET /class?item= COC(=O)C1=C(C)NC(C)=C(C(=O)OC)C1c1ccccc1[N+](=O)[O-]
middle bin

Form: Item = N/C(=N\N=C\c1ccc(Cl)cc1)N/N=C/c1ccc(Cl)cc1 [Robenidine Hydrochoride] ; Class = ?
upper bin

Field: class (z-score of subpopulation abundance) — entry: C[C@@H](O)[C@H]1C(=O)N2C(C(=O)OCOC(=O)C(C)(C)C)=C(SC3CN(C4=NCCS4)C3)[C@H](C)[C@H]12
middle bin

###

Entries and their z-score of subpopulation abundance values follow.
System: Saccharomyces cerevisiae BY4741 SeMeCo community
ASSAY METHOD TEXT: z-score of subpopulation abundance vs DMSO median, subpopulation auxotrophic for HLUM; higher = larger share of this subpopulation than in DMSO controls
CONDITION PARAMETERS: 10 µM; 24 h; SM minimal medium; subpopulation (auxotrophy): HLUM
Please reply with the value in numeric form only.

Example entries and their recorded answers appear below.
{"MOLECULE": "C#C[C@]1(OC(C)=O)CC[C@H]2[C@@H]3CCC4=C[C@@H](OC(C)=O)CC[C@@H]4[C@H]3CC[C@@]21C [Ethynodiol diacetate]", "ASSAY VALUE": 0.38}
{"MOLECULE": "Nc1ccc(C(=O)O)c(O)c1", "ASSAY VALUE": -0.18}

API: value(readout= z-score of subpopulation abundance, system= Saccharomyces cerevisiae BY4741 SeMeCo community, query= Nc1c(CC(=O)O)cccc1C(=O)c1ccccc1 [Amfenac Sodium Monohydrate] )
0.57

Form field: z-score of subpopulation abundance recorded for C[C@H]1c2cccc(O)c2C(O)=C2C(=O)[C@]3(O)C(O)=C(C(N)=O)C(=O)[C@@H](N(C)C)[C@@H]3[C@@H](O)[C@@H]21 with Saccharomyces cerevisiae BY4741 SeMeCo community (enter value)
0.32

###

Tested on: Saccharomyces cerevisiae BY4741 SeMeCo community
ASSAY METHOD TEXT: z-score of subpopulation abundance vs DMSO median, subpopulation auxotrophic for UM; higher = larger share of this subpopulation than in DMSO controls
CONDITION PARAMETERS: 10 µM; 24 h; SM minimal medium; subpopulation (auxotrophy): UM
Structures can show the parent of a compound that is named as a salt.
VALUE KIND: z-score of subpopulation abundance
Provide a numeric answer; units are not to be included.

Would you please look over these solved cases?
{"COMPOUND": "Nc1ccc(S(=O)(=O)c2ccc(N)cc2)cc1", "SYSTEM UNDER TEST": "Saccharomyces cerevisiae BY4741 SeMeCo community", "z-score of subpopulation abundance": 0.45}
{"COMPOUND": "CC1=C(C(=O)O)N2C(=O)[C@@H](NC(=O)[C@H](N)C3=CCC=CC3)[C@H]2SC1 [Cefradine]", "SYSTEM UNDER TEST": "Saccharomyces cerevisiae BY4741 SeMeCo community", "z-score of subpopulation abundance": -0.6}
{"COMPOUND": "CC/C(=C(\\c1ccccc1)c1ccc(OCCN(C)C)cc1)c1ccccc1 [Tamoxifen Citrate]", "SYSTEM UNDER TEST": "Saccharomyces cerevisiae BY4741 SeMeCo community", "z-score of subpopulation abundance": 1.43}

Now for another entry.
For the compound Oc1c(I)cc(Cl)c2cccnc12 , what z-score of subpopulation abundance is on record?
6.49

###

Test system: Saccharomyces cerevisiae BY4741 SeMeCo community
ASSAY METHOD TEXT: z-score of subpopulation abundance vs DMSO median, subpopulation auxotrophic for HLM; higher = larger share of this subpopulation than in DMSO controls
CONDITION PARAMETERS: 10 µM; 24 h; SM minimal medium; subpopulation (auxotrophy): HLM
Structures can show the parent of a compound that is named as a salt.
The following compounds are listed with their measured z-score of subpopulation abundance values.
Note: the reply should be a number with no unit written.

Solved entries (count: 4):
{"COMPOUND": "CO/N=C(\\C(=O)N[C@@H]1C(=O)N2C(C(=O)O)=CCS[C@H]12)c1csc(N)n1 [Ceftizoxime sodium]", "z-score of subpopulation abundance": -0.22}
{"COMPOUND": "O=C(O)c1cc(=O)c2c(OCC(O)COc3cccc4oc(C(=O)O)cc(=O)c34)cccc2o1 [Disodium Cromoglycate]", "z-score of subpopulation abundance": -0.04}
{"COMPOUND": "O=c1c(-c2ccc(O)cc2)coc2c([C@@H]3O[C@H](CO)[C@@H](O)[C@H](O)[C@H]3O)c(O)ccc12 [Puerarin]", "z-score of subpopulation abundance": 1.18}
{"COMPOUND": "Nc1c(CC(=O)O)cccc1C(=O)c1ccccc1 [Amfenac Sodium Monohydrate]", "z-score of subpopulation abundance": 2.36}

Look up z-score of subpopulation abundance: COCCCOc1ccnc(C[S+]([O-])c2nc3ccccc3[nH]2)c1C (stereo not given) [Rabeprazole]
0.32

Form field: reported z-score of subpopulation abundance of CC(=O)[C@H]1CC[C@H]2[C@@H]3CC=C4C[C@@H](O)CC[C@]4(C)[C@H]3CC[C@]12C [Pregnenolone]
0.71

What does the record list as z-score of subpopulation abundance for CC(=O)OC1CC2(C)C(CC(O)C3C4(C)CCC(O)C(C)C4CCC32C)C1=C(CCC=C(C)C)C(=O)O (stereo not given) [Fusidine] ?
1.22

Which z-score of subpopulation abundance is listed for CCCCOc1ccc(C(=O)CCN2CCCCC2)cc1 [Dyclonine HCl] ?
-0.52

# input compound: Cc1cc(/C=C/c2ccc3cc(N(C)C)ccc3[n+]2C)c(C)n1-c1ccccc1 [pyrvinium] ; wanted: its z-score of subpopulation abundance
-0.3

Fill in the blank: the reported z-score of subpopulation abundance of O=c1n(CCCN2CCN(c3cccc(Cl)c3)CC2)nc2ccccn12 [Trazodone HCl] is ____.
0.04

Reported z-score of subpopulation abundance for CC(C(=O)O)c1ccc2c(c1)Cc1cccnc1O2 (stereo not given) [Pranoprofen] : what is it?
0.61
